Test: clinical
Conditions: human, blood, po, 5 mg, t1/2, CYP3A5 expressors (N=12); single oral dose 5 mg
ASSAY_METRIC: half-life (h)

SAMPLE_SMILES | UNIT_SYMBOL | VALUE_OBSERVED
C=CC[C@@H]1/C=C(\C)C[C@H](C)C[C@H](OC)[C@H]2O[C@@](O)(C(=O)C(=O)N3CCCC[C@H]3C(=O)O[C@H](/C(C)=C/[C@@H]3CC[C@@H](O)[C@H](OC)C3)[C@H](C)[C@@H](O)CC1=O)[C@H](C)C[C@@H]2OC | h | 29.9

----------
Design: species or system human
Settings: human, kidney/blood, oral, 5 mg, Kp,kidney (apparent tissue-to-blood partitioning coefficient), CYP3A5 nonexpressors; empirical Bayesian estimation
ASSAY_METRIC: Kp

SAMPLE_SMILES | VALUE_OBSERVED
C=CC[C@@H]1/C=C(\C)C[C@H](C)C[C@H](OC)[C@H]2O[C@@](O)(C(=O)C(=O)N3CCCC[C@H]3C(=O)O[C@H](/C(C)=C/[C@@H]3CC[C@@H](O)[C@H](OC)C3)[C@H](C)[C@@H](O)CC1=O)[C@H](C)C[C@@H]2OC | 23.4

----------
Set-up: species or system human
Conditions: human, kidney/blood, oral, 5 mg, Kp,kidney (apparent tissue-to-blood partitioning coefficient), CYP3A5 expressors; empirical Bayesian estimation
ASSAY_METRIC: Kp

SAMPLE_SMILES | ASSAY_METRIC | VALUE_OBSERVED
C=CC[C@@H]1/C=C(\C)C[C@H](C)C[C@H](OC)[C@H]2O[C@@](O)(C(=O)C(=O)N3CCCC[C@H]3C(=O)O[C@H](/C(C)=C/[C@@H]3CC[C@@H](O)[C@H](OC)C3)[C@H](C)[C@@H](O)CC1=O)[C@H](C)C[C@@H]2OC | Kp | 12.1

----------
Assay: clinical
Settings: human, whole blood, oral, 5 mg, Clast, blood concentration at 96 hour; CYP3A5 expressors (N=12)

COMPOUND | concentration at 96 h [ng/mL]
C=CC[C@@H]1/C=C(\C)C[C@H](C)C[C@H](OC)[C@H]2O[C@@](O)(C(=O)C(=O)N3CCCC[C@H]3C(=O)O[C@H](/C(C)=C/[C@@H]3CC[C@@H](O)[C@H](OC)C3)[C@H](C)[C@@H](O)CC1=O)[C@H](C)C[C@@H]2OC [tacrolimus] | 0.2

These entries and their values trace back to paper PMC4038024.
